Biological target: UniProt P19492
Sequence (P19492 23-888): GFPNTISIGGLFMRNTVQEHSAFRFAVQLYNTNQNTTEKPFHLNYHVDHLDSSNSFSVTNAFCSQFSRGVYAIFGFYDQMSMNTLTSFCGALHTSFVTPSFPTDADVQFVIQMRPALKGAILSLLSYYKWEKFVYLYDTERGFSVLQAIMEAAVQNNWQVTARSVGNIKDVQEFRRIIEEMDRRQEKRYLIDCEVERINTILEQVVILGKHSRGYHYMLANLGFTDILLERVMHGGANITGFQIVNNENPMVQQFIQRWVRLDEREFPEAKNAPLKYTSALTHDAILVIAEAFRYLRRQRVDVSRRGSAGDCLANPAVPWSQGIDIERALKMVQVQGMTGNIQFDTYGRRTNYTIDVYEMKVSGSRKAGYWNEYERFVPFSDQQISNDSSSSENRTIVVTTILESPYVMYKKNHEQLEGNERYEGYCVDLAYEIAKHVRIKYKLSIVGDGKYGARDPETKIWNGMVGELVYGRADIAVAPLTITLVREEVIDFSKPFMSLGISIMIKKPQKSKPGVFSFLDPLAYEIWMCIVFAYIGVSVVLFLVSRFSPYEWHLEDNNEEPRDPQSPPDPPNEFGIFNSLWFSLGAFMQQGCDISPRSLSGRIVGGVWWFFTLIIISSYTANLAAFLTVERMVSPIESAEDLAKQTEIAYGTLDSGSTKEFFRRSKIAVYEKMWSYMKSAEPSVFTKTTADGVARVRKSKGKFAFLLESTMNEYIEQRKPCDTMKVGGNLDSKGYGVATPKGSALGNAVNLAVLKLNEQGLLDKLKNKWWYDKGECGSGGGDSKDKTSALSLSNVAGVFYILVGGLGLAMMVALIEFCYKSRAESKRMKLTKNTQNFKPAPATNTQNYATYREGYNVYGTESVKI
Assay: Functional test for AMPA-receptor activity, two electrode voltage clamp in Xenopus laevis oocytes
Details: Xenopus oocytes expressing rGluR3-(flop); read-out: IC50-value, antagonist at the rGluR3 AMPA receptor
readout_label: pIC50
Keep in mind that pIC50 stands for -log10 of concentration in molar terms.

Value wanted: pIC50 (UniProt P19492) of entry `CN(C)c1cc2c(=O)n(NS(C)(=O)=O)c(=O)[nH]c2cc1[N+](=O)[O-]` 5.64

----------
Quick reference for melting point among some molecules

Illustrative cases are given below, each with its answer.
> print(dat)
                                   molecule  readout.label             obs.value
1  CS(=O)(=O)Nn1c(=O)[nH]c2cc([N+](=O)[O-])c(NCC(O)c3cccs3)cc2c1=O (stereo not drawn) [Example 6]  melting point         110 °C (dec.)
2  CNC(=O)c1ncn(-c2cc3c(=O)n(NS(C)(=O)=O)c(=O)[nH]c3cc2C(F)(F)F)n1 [Example 72]  melting point         257 to 260 °C
3  COC(=O)Nc1cc2c(=O)n(NS(C)(=O)=O)c(=O)[nH]c2cc1C(F)(F)F [Example 101]  melting point     232.4 to 240.2 °C
4  CCOC(=O)c1ncn(-c2cc3c(=O)n(NS(C)(=O)=O)c(=O)[nH]c3cc2C(F)(F)F)n1 [Example 71]  melting point         267 to 270 °C
5  COCc1ccc(-c2cn(-c3cc4c(=O)n(NS(C)(=O)=O)c(=O)[nH]c4cc3C(F)(F)F)cn2)cc1 [Example 85]  melting point         252 to 257 °C
6  CS(=O)(=O)Nn1c(=O)[nH]c2cc(C(F)(F)F)c(N3CCC(F)(F)CC3)cc2c1=O [Example 76]  melting point  249 to 261 °C (dec.)

For CS(=O)(=O)Nn1c(=O)[nH]c2cc(C(F)(F)F)c(-n3cnc(CO)c3)cc2c1=O [Example 93] , what is its reported melting point? 225 to 230 °C

Now the same for COC(=O)c1cn(-c2cc3c(=O)n(NS(C)(=O)=O)c(=O)[nH]c3cc2C(F)(F)F)cn1 [Example 88] 287 to 288 °C

// next record COc1ccc(-c2cn(-c3cc4c(=O)n(NS(C)(=O)=O)c(=O)[nH]c4cc3C(F)(F)F)cn2)cc1 [Example 84] 293 to 294 °C

And the next one, CS(=O)(=O)Nn1c(=O)[nH]c2cc(C(F)(F)F)c(N3CCC4(CC3)OCCO4)cc2c1=O [Example 77] ? 253 to 262 °C

Also CS(=O)(=O)Nn1c(=O)[nH]c2cc(C(F)(F)F)c(NCCO)cc2c1=O [Example 82] ? 240 to 246 °C

Please do the same for CS(=O)(=O)Nn1c(=O)[nH]c2cc([N+](=O)[O-])c(-n3cnc(CO)c3)cc2c1=O [Example 2] as well. > 300 °C

How about CS(=O)(=O)Nn1c(=O)[nH]c2cc(C(F)(F)F)c(Oc3cccnc3)cc2c1=O [Example 80] ? 194 to 196 °C
